src = patent EP4678638A1

- Tested on: CCRF-CEM
- method_description: CCK-8 proliferation, CCRF-CEM
- Format: cell-based, Human
- condition_set: Homo sapiens, CCRF-CEM; CCK-8; 96 hours; read-out: Inhibitory activity (IC50) on tumor cell proliferation, CCRF-CEM
pIC50: −log10 of the molar value.
Below: a set of entries, each annotated with reported pIC50.

[
  {
    "compound": "Cc1nc2c(F)cc(-c3nc(Nc4ccc(N5CCC(N6CCN(Cc7ccc(N8CCC(=O)NC8=O)cc7)CC6)CC5)cn4)ncc3F)cc2n1C(C)C",
    "pIC50": "6.30 to 7.00"
  },
  {
    "compound": "Cc1nc(Nc2ncc(C(=O)Nc3c(C)cccc3Cl)s2)cc(N2CCN(CCO)CC2)n1 [Dasatinib, reference compound]",
    "pIC50": "< 5.00"
  },
  {
    "compound": "CNC(=O)c1ccc(Nc2ncc(C(F)(F)F)c(NCc3nccnc3N(C)S(C)(=O)=O)n2)cc1 [Defactinib, reference compound]",
    "pIC50": "5.30 to 6.00"
  },
  {
    "compound": "Nc1nc(Nc2ccc(S(=O)(=O)N3CCN(Cc4ccc(N5CCC(=O)NC5=O)cc4)CC3)cc2)nn1C(=O)c1c(F)cccc1F",
    "pIC50": "6.00 to 6.30"
  }
]
